// data source = patent US20250129021A1

The entries below are paired with their reported IC50.
# System: CCNTB1
# TEST DETAILS: In vitro transcription-translation (IVTT) assay, CCNTB1 reporter
# Type: biochemical
# PROTOCOL CONDITIONS: HeLa S3 lysate, 2 hrs at 30° C.

Here is how some compounds turned out for IC50.
>>> result("COc1ccc(C[C@H]2NC[C@H](O)[C@H]2OC(=O)NCC(F)(F)CO)cc1")
"10 to 20 µM"
>>> result("O=C(NCc1cc[nH]c(=O)c1)O[C@@H]1[C@@H](O)CN[C@@H]1Cc1ccc(Cl)cc1")
"< 10 µM"
>>> result("COc1ccc(C[C@H]2NC[C@H](O)[C@H]2OC(=O)NCC=C(C)C)cc1")
"< 10 µM"

Challenge: # return IC50 of O=C(NCc1cccc(F)c1)O[C@@H]1[C@@H](O)CN[C@@H]1Cc1ccc(OC(F)(F)F)cc1 (system: CCNTB1)
Response given: 20 to 30 µM
